- System: SEM cells
- run-description: cell viability relative to DMSO control; higher = less cytotoxic
- experimental-parameters: RPMI 5 mM glucose + 10% FBS; 48 h; 0.00702 µM
Listing of entries alongside the reported cell viability.
# number only, unit % dropped from output

These recorded examples may help you get a feel for the data.
| compound | system-under-test | cell viability, % |
| --- | --- | --- |
| CC(N[C@H]1C[C@@H]1c1ccccc1)c1ccc2c(c1)OCCO2 (some centres undefined) | SEM cells | 94.7 |
| Oc1ccc2c3c1O[C@H]1c4[nH]c5c(c4C[C@@]4(O)[C@@H](C2)N(CC2CC2)CC[C@]314)C[C@@]1(O)[C@H]2Cc3ccc(O)c4c3[C@@]1(CCN2CC1CC1)[C@H]5O4 | SEM cells | 102 |
| CC1=CC=CC=C1N2\C(=N/C3=C(C(=CC=C3)C)C2=O)C[N]4C=NC5=C4N=CN=C5N | SEM cells | 94.3 |
| CC(C)NCC(O)COc1ccc(COCCOC(C)C)cc1 (centres undefined) | SEM cells | 130 |

-- ask Hello, I am looking for reported cell viability with SEM cells for CC1CCC(C(=O)N(c2cc(C#CC(C)(C)C)sc2C(=O)O)C2CCC(O)CC2)CC1 (centres undefined) . Could you help?
-- reply 118

-- ask Hello, I am looking for reported cell viability with SEM cells for COC1=C(N2CCNC(C)C2)C(=CC3=C1N(\C=C(C(O)=O)/C3=O)C4CC4)F (centres undefined) . Could you help?
-- reply 116

-- ask Hello, I am looking for reported cell viability with SEM cells for FC(F)(F)c1ccc(/C=C/c2nc(COc3ccc(CCCCn4ccnn4)cc3)co2)cc1 . Could you help?
-- reply 116

-- ask Hello, I am looking for reported cell viability with SEM cells for ClC1=C(N\C2=N\CCN2)C3=NSN=C3C=C1 . Could you help?
-- reply 115

-- ask Hello, I am looking for reported cell viability with SEM cells for CC(=O)Nc1ccc(OC[C@](C)(O)C(=O)Nc2ccc([N+](=O)[O-])c(C(F)(F)F)c2)cc1 . Could you help?
-- reply 77.8

-- ask Hello, I am looking for reported cell viability with SEM cells for C[C@H](O)[C@H]1[C@@H]2[C@H](C)C(=C(\N2C1=O)C(O)=O)/S[C@@H]3CN[C@H](CN[S+](N)([O-])=O)C3 . Could you help?
-- reply 136

-- ask Hello, I am looking for reported cell viability with SEM cells for CC1(C)O[C@@H]2C[C@H]3[C@@H]4CCC5=CC(=O)C=C[C@]5(C)[C@@]4(F)[C@@H](O)C[C@]3(C)[C@]2(C(=O)CO)O1 . Could you help?
-- reply 103

-- ask Hello, I am looking for reported cell viability with SEM cells for Cc1cn2c(-c3cn[nH]c3)cnc2c(Nc2ccc(C(=O)N3CCNCC3)cc2F)n1 . Could you help?
-- reply 107

-- ask Hello, I am looking for reported cell viability with SEM cells for OC1=C(O)C2=C(\C=C/C(=O)O2)C=C1 . Could you help?
-- reply 98.1

-- ask Hello, I am looking for reported cell viability with SEM cells for OC(=O)C1=CC=C(NC2=NC3=C(C\N=C(/C4=CC(=CC=C34)Cl)C5=C(F)C=CC=C5F)C=N2)C=C1 . Could you help?
-- reply 113

====

- System: P12-Ichikawa
- run-description: cell viability relative to DMSO control; higher = less cytotoxic
- experimental-parameters: RPMI 5 mM glucose + 10% dialyzed FBS; 48 h; 0.569 µM
Listing of entries alongside the reported cell viability.
Express your answer as a number followed by its unit.

These recorded examples may help you get a feel for the data.
| compound | observed-result |
| --- | --- |
| CN(C)CCOc1cc(-c2cn[nH]c2)ccc1NC(=O)C1COc2ccccc2O1 (centres undefined) | 128% |
| C/C=C(/C)C(=O)O[C@H]1C(C)=C2[C@H]([C@@H]1OC(=O)CCCCCCC)[C@@](C)(OC(C)=O)C[C@H](OC(=O)CCC)[C@@]1(O)[C@H]2OC(=O)[C@@]1(C)O | 13.3% |
| CC1CCC(C(=O)N(c2cc(C#CC(C)(C)C)sc2C(=O)O)C2CCC(O)CC2)CC1 (centres undefined) | 88.5% |

-- ask Any idea what cell viability was measured for ClC1=C(N\C2=N\CCN2)C3=NSN=C3C=C1 ?
-- reply 129%

====

Listing of entries alongside the reported cell viability.
- System: SEM cells
- run-description: cell viability relative to DMSO control; higher = less cytotoxic
- experimental-parameters: HPLM + 10% dialyzed FBS; 48 h; 0.00234 µM
Express your answer as a number followed by its unit.

| compound | cell viability |
| --- | --- |
| CCC(C)SSc1ncc[nH]1 (stereo unspecified) | 90.2% |
| Cc1ccc(NC(=O)c2ccc(CN3CCN(C)CC3)cc2)cc1Nc1nc(-c2cccnc2)cs1 | 90.4% |
| [NH2][Pt]1([NH2])[O]CC(=O)[O]1 | 95.6% |

-- ask Any idea what cell viability was measured for CN(CC#C)C/C1=C/C2=CC=CC=C2OC3=CC=CC=C13 ?
-- reply 90.7%

-- ask Any idea what cell viability was measured for c1cncc(CN2CCC(n3ncc4c(N5CCOCC5)nc(-c5ccc6[nH]ccc6c5)nc43)CC2)c1 ?
-- reply 88.8%

-- ask Any idea what cell viability was measured for O=C(NOCC(O)CO)c1cc(Br)c(F)c(F)c1Nc1ccc(I)cc1F (stereo unspecified) ?
-- reply 76.3%

====

- Tested on: SEM cells
- run-description: cell viability relative to DMSO control; higher = less cytotoxic
- experimental-parameters: RPMI 5 mM glucose + 10% dialyzed FBS; 48 h; 5.12 µM
endpoint-name: cell viability (%)
# number only, unit % dropped from output

| molecule | units-label | cell viability |
| --- | --- | --- |
| CN\1C(=O)/C(=C(\N=C1N2CCCC[S+]2([O-])=O)C(=O)NCC3=CC=C(F)C=C3)O | % | 85.5 |

-- ask Any idea what cell viability was measured for C[C@H]1[C@H](NC(=O)/C(=N/OC(C)(C)C(=O)O)c2csc(N)n2)C(=O)N1[S+](=O)([O-])O ?
-- reply 105

====

Listing of entries alongside the reported cell viability.
- Test system: P12-Ichikawa
- run-description: cell viability relative to DMSO control; higher = less cytotoxic
- experimental-parameters: HPLM + 10% dialyzed FBS; 48 h; 15.4 µM
# number only, unit % dropped from output

These recorded examples may help you get a feel for the data.
| compound | observed-result |
| --- | --- |
| Cc1nc(NC(=O)N2CCC[C@H]2C(N)=O)sc1-c1ccnc(C(C)(C)C(F)(F)F)c1 | 62.9 |
| C\C1=C\C(=O)OC2=C1C=CC(=C2)O | 102 |
| CC(=O)Nc1ccc(OC[C@](C)(O)C(=O)Nc2ccc([N+](=O)[O-])c(C(F)(F)F)c2)cc1 | 91.6 |
| Cc1ccccc1N1C(=O)c2cc([S+](N)(=O)[O-])c(Cl)cc2NC1C (stereo not drawn) | 103 |
| CO[C@H]1/C=C/O[C@@]2(C)Oc3c(C)c(O)c4c(O)c(c5c(nc6cc(C)ccn65)c4c3C2=O)NC(=O)/C(C)=C\C=C\[C@H](C)[C@H](O)[C@@H](C)[C@@H](O)[C@@H](C)[C@H](OC(C)=O)[C@@H]1C | 89.4 |

-- ask Hello, I am looking for reported cell viability with P12-Ichikawa for CC(C)C(C)/C=C/C(C)C1CCC2C3=CC=C4CC(O)CCC4(C)C3CCC21C (stereo not drawn) . Could you help?
-- reply 97.8

-- ask Hello, I am looking for reported cell viability with P12-Ichikawa for N=C(CCSCc1csc(N=C(N)N)n1)N[S+](N)(=O)[O-] . Could you help?
-- reply 108

-- ask Hello, I am looking for reported cell viability with P12-Ichikawa for NC(=O)c1cnc(N[C@@H]2CCCC[C@@H]2N)nc1Nc1cccc(-n2nccn2)c1 . Could you help?
-- reply 133

====

- Tested on: P12-Ichikawa
- run-description: cell viability relative to DMSO control; higher = less cytotoxic
- experimental-parameters: RPMI 5 mM glucose + 10% dialyzed FBS; 48 h; 1.71 µM
Rule: cell viability below 80% gives yes (1), anything at or above gives no (0).

Solved entries (count: 4):
| compound | group-label |
| --- | --- |
| CC(C)n1nc(-c2cc3cc(O)ccc3[nH]2)c2c(N)ncnc21 | yes (1) |
| CC(C)[C@@H](N(CCCN)C(=O)C1=CC=C(C)C=C1)C/2=N/C3=CC(=CC=C3C(=O)N2CC4=CC=CC=C4)Cl | yes (1) |
| CC(C)C(C)/C=C/C(C)C1CCC2C3=CC=C4CC(O)CCC4(C)C3CCC21C (configuration not stated) | no (0) |
| CC(C)(C)C(=O)Oc1ccc2c(c1)nc(NC(=O)c1cccc([N+](=O)[O-])c1)n2CCCO | no (0) |

Next item in the queue.
-- ask For CN[S+](=O)([O-])Cc1ccc2[nH]cc(CCN(C)C)c2c1 , is the recorded cell viability below the cut-off of 80%?
-- reply no (0)
